IC50 listing for selected molecules.
# assay_system: full-length SHP2-E76K oncogenic mutant (Homo sapiens (Human), UniProt Q06124, E76K)
# Sequence (Q06124 whole entry E76K): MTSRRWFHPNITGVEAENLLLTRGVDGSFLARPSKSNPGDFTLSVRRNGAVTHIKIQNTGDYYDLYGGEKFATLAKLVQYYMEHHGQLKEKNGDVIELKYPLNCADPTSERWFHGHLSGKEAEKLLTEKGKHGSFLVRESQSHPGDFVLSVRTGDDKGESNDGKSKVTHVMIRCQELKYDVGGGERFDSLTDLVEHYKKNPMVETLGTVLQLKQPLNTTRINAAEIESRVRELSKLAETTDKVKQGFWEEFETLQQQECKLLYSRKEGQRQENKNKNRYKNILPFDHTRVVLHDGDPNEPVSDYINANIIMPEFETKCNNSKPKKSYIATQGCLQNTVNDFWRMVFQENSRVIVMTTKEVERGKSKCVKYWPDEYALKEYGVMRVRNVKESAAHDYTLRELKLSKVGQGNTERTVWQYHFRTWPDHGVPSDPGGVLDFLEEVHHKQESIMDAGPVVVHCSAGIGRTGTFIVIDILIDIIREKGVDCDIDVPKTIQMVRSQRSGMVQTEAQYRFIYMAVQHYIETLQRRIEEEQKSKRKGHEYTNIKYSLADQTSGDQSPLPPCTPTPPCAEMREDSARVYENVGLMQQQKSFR
# experiment_summary: DiFMUP fluorescence intensity phosphatase inhibition assay, SHP2-E76K
# Assay type: biochemical
# test_conditions: DiFMUP at Km (20 μM), 10-point dose-response; read-out: SHP2-E76K IC50

Solved entries:
[[record]]
molecule_smiles = "O=C1/C(=C/c2ccc(-c3ccccc3)o2)Sc2ccccc21"
assay_value = "≥ 100 µM"

[[record]]
molecule_smiles = "CC(C)NC(=O)c1cc(-c2ccc(/C=C3\\Sc4ccccc4C3=O)o2)ccc1O"
assay_value = "1 to 20 µM"

[[record]]
molecule_smiles = "COc1ccc(-c2ccc(/C=C3\\Sc4ccccc4C3=O)o2)cc1C(=O)Nc1ccccc1"
assay_value = "20 to 100 µM"

[[record]]
molecule_smiles = "O=C(O)c1cccc(-c2ccc(/C=C3\\Cc4ccccc4C3=O)o2)c1"
assay_value = "1 to 20 µM"

[[record]]
molecule_smiles = "O=C(Nc1ccccc1)c1cc(-c2ccco2)ccc1O"
assay_value = "≥ 100 µM"


Next up:
Input: Form field: reported IC50 of O=C1/C(=C/c2ccc(-c3cccc(C(=O)O)c3)o2)CC/C1=C\c1ccc(-c2cccc(C(=O)O)c2)o1
Output: ≤ 1 µM

====

# assay_system: full-length SHP2-E76K oncogenic mutant (Homo sapiens (Human), UniProt Q06124, E76K)
# experiment_summary: DiFMUP fluorescence intensity phosphatase inhibition assay, SHP2-E76K
# Assay type: biochemical
# test_conditions: DiFMUP at Km (20 μM), 10-point dose-response; read-out: SHP2-E76K IC50
quantity_name: IC50

Worked cases, IC50 given:
[[record]]
molecule_smiles = "O=C(O)c1ccc(-c2ccc(/C=C3\\Sc4ccccc4C3=O)o2)cc1"
assay_value = "1 to 20 µM"

[[record]]
molecule_smiles = "Nc1cccc(NC(=O)c2cc(-c3ccc(/C=C4\\Sc5ccccc5C4=O)o3)ccc2O)c1"
assay_value = "1 to 20 µM"

[[record]]
molecule_smiles = "O=C(Nc1ccccc1)c1cc(-c2ccc(/C=C3\\Sc4ccccc4C3=O)o2)ccc1O"
assay_value = "1 to 20 µM"

[[record]]
molecule_smiles = "O=C1/C(=C/c2ccc(-c3ccc(O)cc3)o2)Sc2ccccc21"
assay_value = "20 to 100 µM"

[[record]]
molecule_smiles = "O=C(O)c1cc(-c2ccc(/C=C3\\Cc4ccccc4C3=O)o2)ccc1O"
assay_value = "1 to 20 µM"


Input: Return reported IC50; argument: O=C(O)c1cccc(-c2cccc(/C=C3\Sc4ccccc4C3=O)c2)c1
Output: 1 to 20 µM

Input: Consider the compound shown here: O=C(/C=C/c1ccc(-c2ccc(O)c(C(=O)O)c2)o1)c1ccccc1 What is its recorded IC50?
Output: 20 to 100 µM

Input: I have this compound here, N#Cc1cccc(-c2ccc(/C=C/C(=O)/C=C/c3ccc(-c4cccc(C#N)c4)o3)o2)c1 , and I need its recorded IC50.
Output: 1 to 20 µM

Input: Fill blank: measured IC50 of the compound O=C(O)c1cc(-c2ccc(/C=C3\Oc4ccccc4C3=O)o2)ccc1O is ____.
Output: 1 to 20 µM

Input: May I ask what IC50 has been recorded for CN1CCN(C(=O)c2cc(-c3ccc(/C=C4\Sc5ccccc5C4=O)o3)ccc2O)CC1 ?
Output: ≥ 100 µM

Value source: patent US20250026741A1
